# Test system: HL-60
# Procedure Details: NCI tumour cell line growth inhibition, 48 h
Structures can show the parent of a compound that is named as a salt. Active and inactive are the calls of the source. Rule as the data show it: active = GI50 up to about 1.1 µM and inactive = higher.
Would you mind answering with one of these outcomes? active, inactive

# input Could you check what this test reported for Cc1ccc(NC(=O)/C(CC(=O)c2c[n+]([O-])c3ccccc3[n+]2[O-])=N\NC(=O)C[n+]2ccccc2)cc1 ?
# output inactive

# input Could you check what this test reported for Cc1ccc(N2C(=O)/C(=C3\Sc4c(nc(C)n(C)c4=O)N3c3ccccc3)SC2=S)cc1 ?
# output inactive

# input Could you check what this test reported for CCCC(=O)Nc1cc(C(=O)N2C[C@H]3C[C@@]34C2=CC(=O)c2[nH]cc(C)c24)n(COC)c1 ?
# output active

# input Could you check what this test reported for CCOC(=O)c1c(N2CCOCC2)[nH]c(=O)c(C(c2c(Cl)cccc2Cl)c2c(O)c(C(=O)OCC)c(N3CCOCC3)[nH]c2=O)c1O ?
# output inactive

# input Could you check what this test reported for CC(=O)Nc1ccc(-c2nnc(SCC(=O)Nc3ccccc3)o2)cc1 ?
# output inactive

# input Could you check what this test reported for Nc1ccc2nc3ccc(N)cc3[n+](-c3ccccc3)c2c1 ?
# output inactive

# input Could you check what this test reported for CCOC(=O)Nc1ccc(S(=O)(=O)OC)cc1.CCOC(=O)Nc1ccc(S(=O)(=O)OC)cc1.NC(=O)NCCO ?
# output inactive

# input Could you check what this test reported for Cc1ccc(NC(=O)/C=C/c2ccccc2)c(C)c1 ?
# output inactive

# input Could you check what this test reported for COc1ccc(/C=N/Nc2nc(C)c3c(n2)Nc2ccccc2NC3=O)cc1 ?
# output inactive

# input Could you check what this test reported for c1cc(Sc2nc(Sc3ccncc3)nc(Sc3ccncc3)n2)ccn1 ?
# output inactive

# input Could you check what this test reported for CCc1cccc(=O)c([O-])c1.CCc1cccc(=O)c([O-])c1.[Bi+3].[Cl-] ?
# output inactive

# input Could you check what this test reported for COc1cc(CCN(C)C)cc(OC)c1OC ?
# output inactive

# input Could you check what this test reported for CCCCCCCCCCCCCCCCNc1ccc2c(c1)OCCOCCOCCOCCO2 ?
# output inactive

# input Could you check what this test reported for CC(=O)CC(=O)Nc1ccc(OS(N)(=O)=O)cc1 ?
# output inactive

# input Could you check what this test reported for Cc1ccc(Oc2ccc(C)cc2[N+](=O)[O-])cc1 ?
# output inactive

# input Could you check what this test reported for O=C1OC(Cc2ccccc2)(N2CCCC2=O)C1c1ccccc1 (stereo not given) ?
# output inactive

# input Could you check what this test reported for COc1ccc2[nH]c3c([N+](=O)[O-])ccc(NCCCN(C)C)c3/c(=N/CCCN(C)C)c2c1 ?
# output inactive

# input Could you check what this test reported for C1=C2/CC[C@H](Sc3ccccc3)[C@H]2C2(CCCCC/1)OCCO2 ?
# output inactive

# input Could you check what this test reported for OC1C[C@H](c2ccccc2)C2(C(O)c3ccccc3C2O)[C@@H](c2ccccc2)C1 (stereo not given in full) ?
# output inactive

# input Could you check what this test reported for O=Cc1c2ccccc2n2ccc3c4ccccc4[nH]c3c12 ?
# output inactive

# input Could you check what this test reported for CC(C)N(C(C)C)S(=O)(=O)CC12CCC(C/C1=N\O)C2 (stereo not given) ?
# output inactive

# input Could you check what this test reported for COc1ccc2cc(C(C)C(=O)N3C(=O)OCC3(C)C)ccc2c1 (stereo not given) ?
# output inactive

# input Could you check what this test reported for C/C=C1/C(=Cc2[nH]c(C=c3[nH]/c(=C/C4=NC(=O)C(CC)=C4C)c(C)c3CCC(=O)O)c(CCC(=O)O)c2C)NC(=O)C1C (stereo not given) ?
# output inactive

# input Could you check what this test reported for COC(=O)[C@]1(C)CCCC2(C)C1CC[C@H]1C=C(C)[C@H]3CCC12C3 (stereo not given in full) ?
# output inactive

# input Could you check what this test reported for Cc1cc(S(=O)(=O)N=C2N(Cc3ccccc3)CCN2Cc2ccccc2)c(S)cc1Cl ?
# output inactive

# input Could you check what this test reported for O=C1c2c(O)cccc2-c2nn(CCNCCO)c3ccc(NCCNCCO)c1c23 [LOSOXANTRONE HYDROCHLORIDE] ?
# output active

# input Could you check what this test reported for COC(=O)CCCC(=O)NC1=C(NCc2ccccc2)C(=O)c2ccccc2C1=O ?
# output inactive

# input Could you check what this test reported for COC1=CC(=O)c2c(c(-c3nc(C)cs3)cn2C)C1=O ?
# output inactive

# input Could you check what this test reported for CCOc1ccc(NC2=CC(=O)C(=O)c3ccccc32)cc1 ?
# output active

# input Could you check what this test reported for COc1ccc2cccc(C(=O)c3ccc(C)c4c3CCC4)c2c1 ?
# output inactive

# input Could you check what this test reported for COc1ccc(C2=C(Cl)c3cc(OC)c(OC)cc3C2)cc1OC ?
# output inactive

# input Could you check what this test reported for O=[N+]([O-])c1ccc(Nc2cccc3c4cc[nH]c(-c5ccccc5)c-4nc23)c([N+](=O)[O-])c1 ?
# output inactive

# input Could you check what this test reported for Cc1ccc(/C=N\NC2c3cc(Cl)ccc3Nc3nc(O)nc(C)c32)cc1 (stereo not given) ?
# output inactive

# input Could you check what this test reported for C=C(Cl)C(Cl)(CBr)CCC(Cl)C(C)C (stereo not given) ?
# output active

# input Could you check what this test reported for O=C1CC(=O)c2c(N3CCCC3)sc(N3CCCC3)c21 ?
# output inactive

# input Could you check what this test reported for N#CC1C=Cc2ccccc2N1C(=O)Oc1ccccc1 (stereo not given) ?
# output inactive

# input Could you check what this test reported for COc1ccc(/C=C2\C[C@H]3[C@@H]4CC=C5C[C@@H](OC(C)=O)CC[C@]5(C)[C@H]4CC[C@]3(C)C2=O)cc1OC ?
# output inactive

# input Could you check what this test reported for COc1ccc2c3c1OC1C(OC)(OC)C=C[C@@]4(Br)[C@@H](C2)N(CC2CC2)CC[C@]314 (stereo not given in full) ?
# output inactive

# input Could you check what this test reported for COc1cc(/C=C/c2ccccn2)cc(OC)c1OC ?
# output inactive

# input Could you check what this test reported for CC(C)(C)N(Cc1ccc2c(c1)OCO2)C(=O)/C=C\[S+]([O-])c1ccccc1 (stereo not given) ?
# output inactive
